Hey, just so you know, these numbers are from patent US20120016009A1.

Hi there, I'd appreciate the recorded Remaining mRNA in % of controls at siRNA conc. of 30 nM for every entry that follows.
- System: PCSK9 mRNA
- ASSAY EXPLANATION: In vitro screening of modified dsRNAs targeted to PCSK9 (Table 2b; cell type not given)
- Type: cell-based
- EXPERIMENTAL CONDITIONS: 30 nM siRNA
In the oligonucleotide strings, read from the 5' end, every base follows the letter of its sugar. An asterisk marks phosphorothioate; unmarked linkages are phosphodiester. Other units and linkages are bracketed, terminal groups are in braces. A string of capitals states the bases alone. [Ab] = 3'-terminal abasic nucleotide; d = 2'-deoxy (DNA); m = 2'-O-methyl; r = 2'-OH (RNA); f = 2'-fluoro
Answers are plain numbers, in %.

>  <SUBSTANCE>
AD-12065: modified dsRNA, SEQ ID NO:1365/1366 (chain 1 rGmCrCmUrGmGrAmGrUmUrUmArUmUrCmGrGmArAdTdT[Ab]; chain 2 rUrUrCrCrGrArAmUrArArArCrUrCmCrArGrGrCdTdT[Ab])

>  <MEASUREMENT>
16

$$$$
>  <SUBSTANCE>
AD-12392: modified dsRNA, SEQ ID NO:1479/1480 (chain 1 rGfCfCfUrGrGrArGrGfUfUfUrAfUfUfCrGrGrArA; chain 2 rUrUrCrCrGrArArUrArArArCrUrCrCrArGrGrCdT*dT)

>  <MEASUREMENT>
28

$$$$
>  <SUBSTANCE>
AD-12046: modified dsRNA, SEQ ID NO:1327/1328 (chain 1 rGmCmCmUrGrGrArGmUmUmUrAmUmUmCrGrGrArA; chain 2 rUrUrCrCrGrArArUrArArArCrUrCrCrArGrGrC*mC*mU)

>  <MEASUREMENT>
13

$$$$

Proceeding to the next substance to report its Remaining mRNA in % of controls at siRNA conc. of 30 nM.
[in] Please give the documented Remaining mRNA in % of controls at siRNA conc. of 30 nM of AD-12052: modified dsRNA, SEQ ID NO:1339/1340 (chain 1 rGmCmCmUrGrGrArGmUmUmUrAmUmUmCrGrGrArArArAdTdT[Ab]; chain 2 rUrUrUrUrCrCrGrArArUrArArArCrUrCrCrArGrGrCdTdT[Ab])
[out] 81

###

- System: PCSK9 mRNA
- ASSAY EXPLANATION: PCSK9 siRNA screening in HepG2 cells (lipofectamine 2000 transfection, PCSK9 mRNA by Quantigene, normalized to GAP-DH)
- Format: cell-based, human
- EXPERIMENTAL CONDITIONS: 100 nM siRNA
In the oligonucleotide strings, read from the 5' end, every base follows the letter of its sugar. An asterisk marks phosphorothioate; unmarked linkages are phosphodiester. Other units and linkages are bracketed, terminal groups are in braces. A string of capitals states the bases alone. d = 2'-deoxy (DNA); r = 2'-OH (RNA)
REPORTED METRIC: Mean percent remaining mRNA transcript at siRNA concentration/in cell type 100 nM/HepG2 (%)
Answers are plain numbers, in %.

>  <SUBSTANCE>
AD-9592: PCSK9 siRNA (sense rCrCrUrArGrArCrArCrCrArGrCrArUrArCrArGdT*dT; antisense rCrUrGrUrArUrGrCrUrGrGrUrGrUrCrUrArGrGdT*dT)

>  <MEASUREMENT>
46

$$$$
>  <SUBSTANCE>
AD-9570: PCSK9 siRNA (sense rCrUrGrCrCrGrGrGrCrCrCrArCrArArCrGrCrUdT*dT; antisense rArGrCrGrUrUrGrUrGrGrGrCrCrCrGrGrCrArGdT*dT)

>  <MEASUREMENT>
35

$$$$
>  <SUBSTANCE>
AD-9609: PCSK9 siRNA (sense rCrArCrGrGrUrArCrCrGrGrGrCrGrGrArUrGrAdT*dT; antisense rUrCrArUrCrCrGrCrCrCrGrGrUrArCrCrGrUrGdT*dT)

>  <MEASUREMENT>
66

$$$$
>  <SUBSTANCE>
AD-9589: PCSK9 siRNA (sense rCrArCrCrGrCrUrGrCrCrGrGrCrArArCrUrUrCdT*dT; antisense rGrArArGrUrUrGrCrCrGrGrCrArGrCrGrGrUrGdT*dT)

>  <MEASUREMENT>
67

$$$$

Next up:
[in] Provide Mean percent remaining mRNA transcript at siRNA concentration/in cell type 100 nM/HepG2 value for the following substance: AD-9578: PCSK9 siRNA (sense rCrArUrUrUrArUrCrUrUrUrUrGrGrGrUrCrUrGdT*dT; antisense rCrArGrArCrCrCrArArArArGrArUrArArArUrGdT*dT)
[out] 49
